Recorded GI50, one value per entry.
System: HCT-15
reported property: GI50

>>> val("COc1nc(OC)c2c(=O)oc(-c3ccccc3)cc2n1")
"> 100 µM"
>>> val("COc1ccc(/N=C2/C(=N/c3ccc(OC)cc3)N(c3ccccc3)C(=S)N2N=C=C2Sc3ccccc3N2C)cc1")
"> 100 µM"
>>> val("C[C@H]1C=C2[C@@H]3CC(C)(C(=O)O)CC[C@]3(C)CC[C@]2(C)[C@]2(C)CC[C@H]3C(C)(C)[C@@H](OC(=O)c4cccc5c(=O)c6ccccc6[nH]c45)CC[C@]3(C)[C@@H]12 (stereo not given in full)")
"> 100 µM"
>>> val("CNC(=O)CN(CC(=O)NC)C(=O)NC")
"> 100 µM"
>>> val("COc1cc(/C=N\\O)cc(/C=N/O)c1O")
"> 100 µM"
>>> val("O=C(Nc1ccc(Cl)c(Cl)c1)C(=O)C(C1OC(=O)c2ccccc21)[N+](=O)[O-] (stereo not given)")
"> 100 µM"
>>> val("NC(Cc1ccccc1)P(=O)(O)O (stereo not given)")
"> 100 µM"
>>> val("CCCN(CCC)C(=O)c1c(N2CCN(C)CC2)c2cccnc2n2c(C)cnc12")
"> 100 µM"
>>> val("O=c1[nH]c2ccc(Cl)cc2o1")
"> 100 µM"
>>> val("CC1CC(N2CCOCC2)=Nc2ccccc2N1Cc1ccccc1 (stereo not given)")
"> 100 µM"
>>> val("c1ccc2[nH]c(-c3cscn3)nc2c1")
"> 100 µM"
>>> val("CC1(C)C(CCO)CC1n1cc(I)c(=O)[nH]c1=O (stereo not given)")
"> 100 µM"
>>> val("CSc1nc(C#N)c(N)n1C")
"> 100 µM"
>>> val("O=C1c2ccccc2C(=O)N1c1ccc(OCCN2CCCCC2)cc1")
"> 100 µM"
>>> val("CO[C@@]12C[C@@H](CNC(=O)c3cc(Br)c[nH]3)O[C@@H]1NC(=O)N2")
"> 100 µM"
>>> val("Nc1nc(Cl)cc(NCC2(CO)CCC(O)C2)n1 (stereo not given)")
"> 100 µM"
>>> val("c1ccc2c(c1)CCc1c(-c3n[nH]c4c3CCc3ccccc3-4)n[nH]c1-2")
"> 100 µM"
>>> val("COc1ccc(NC(C)=O)c(C(O)CCNC(C)=O)c1 (stereo not given)")
"> 100 µM"
>>> val("COc1cccc(C(=O)O)c1Cc1cccc2ccccc12")
"> 100 µM"
>>> val("CCCCc1c(C(=O)OC(C)(C)C)cc(C#Cc2cc(C(=O)OC(C)(C)C)c(CCCC)c(C(=O)OC(C)(C)C)c2)cc1C(=O)OC(C)(C)C")
"> 100 µM"
>>> val("CNCCCNC(=S)Cn1cc(C)c(=O)[nH]c1=O")
"> 42.7 µM"
>>> val("CC1(C)C2C=C(CCN3CCOCC3)CC1C2 (stereo not given)")
"> 100 µM"
>>> val("Nc1c(-c2ccccc2)c2ccc([N+](=O)[O-])cc2c(=O)n1-c1cccc(C(=O)O)c1")
"> 100 µM"
>>> val("O=c1c2ccccc2c2ccccc2c(=O)n1-c1cc2c3ccccc3ccc2c2ccccc12")
"> 100 µM"
>>> val("CC1=CC(=O)/C(=C/n2c(=S)[nH]c3ccccc32)C(=O)O1")
"> 100 µM"

* * *

System: SF-539
assay details: NCI tumour cell line growth inhibition, 48 h
Active and inactive are the calls of the source. Cut-off read from the data, not from the text of the source: active = GI50 up to about 1.1 µM and inactive = higher.
Outcomes: active, inactive

>>> label_class("COc1cccc2c1C(=O)c1c(O)c3c(c(O)c1C2=O)CC(O)(C(O)CO)CC3OC1CC2C(OC3COCC(C#N)N32)C(C)O1 (stereo not given)")
"active"
>>> label_class("[O-][S+]1Nc2c(Cl)cc(Cl)c3c(Cl)cc(Cl)c(c23)N1")
"inactive"
>>> label_class("CCN(CC)CCNC(=O)C1COc2ccc(-c3cc(=O)c4ccccc4o3)cc2O1 (stereo not given)")
"inactive"
>>> label_class("O=C(CSc1nc(=O)c(-c2ccccc2NC(=O)C(F)(F)F)n[nH]1)NC(=O)Nc1ccccc1")
"inactive"
>>> label_class("CCC12C=CCN3CC[C@]4(C(=C(C(=O)OC)[C@@H]1Nc1ccn(C5OC(COC(C)=O)C(OC(C)=O)C5OC(C)=O)c(=O)n1)Nc1ccccc14)C32 (stereo not given in full)")
"inactive"
>>> label_class("O=[N+]([O-])/C=C/c1ccc2ccccc2c1")
"inactive"
>>> label_class("c1ccc(-c2nnc(SCc3c[nH]c4ccccc34)n2-c2ccccc2)cc1")
"inactive"
>>> label_class("COCC1OC(Sc2ccccc2)C(O)C(OC)C1OC (stereo not given)")
"inactive"
>>> label_class("COc1ccccc1C1c2cc3c(cc2OC(N2CCOCC2)C1C)OCO3 (stereo not given)")
"inactive"
>>> label_class("CCN(CC)Cc1cc(Nc2ccnc3ccc4c(nnn4C)c23)ccc1O")
"inactive"
>>> label_class("CCCC(=O)NC1CCc2cc(OC)c(OC)c(OC)c2-c2ccc(OC)c(=O)cc21 (stereo not given)")
"active"
>>> label_class("COC(=O)[C@]12CCC(=O)N1[C@H](C(=O)O)Cc1c2[nH]c2ccccc12")
"inactive"
>>> label_class("N#Cc1c(-c2ccc([N+](=O)[O-])cc2)cc(-c2ccc(Nc3ccnc4cc(C(F)(F)F)ccc34)cc2)nc1N")
"inactive"
>>> label_class("Cc1cc2c(O)c(c1)COCc1cc(C)cc(c1O)COCc1cc(C)cc(c1O)COC2")
"inactive"
>>> label_class("CCC1(c2ccc(OC)c(OC)c2)CCN(S(=O)(=O)c2ccc(C)cc2)C1 (stereo not given)")
"inactive"

* * *

Test system: UACC-62
assay details: NCI tumour cell line growth inhibition, 48 h
The source made the active and inactive calls. Cut-off read from the data, not from the text of the source: active = GI50 up to about 1.1 µM and inactive = higher.
Recorded GI50, one value per entry.
reported property: GI50

>>> val("N/N=C1\\C(OC(=O)Nc2ccccc2)=Nc2ccccc21")
"14.8 µM (inactive)"
>>> val("OC(CCN1CCN(CCOC(c2ccc(F)cc2)c2ccc(F)cc2)CC1)c1ccc(Br)cc1 (stereo not drawn)")
"4.06 µM (inactive)"
>>> val("COc1cc(/C=N\\O)cc(/C=N/O)c1O")
"68.1 µM (inactive)"

* * *

System: UO-31
assay details: NCI tumour cell line growth inhibition, 48 h
The source made the active and inactive calls. Cut-off read from the data, not from the text of the source: active = GI50 up to about 1.1 µM and inactive = higher.
Recorded GI50, one value per entry.
reported property: GI50

>>> val("Cc1ccc(/S(Cc2ccccc2)=N\\S(=O)(=O)c2ccc(C)cc2)cc1 (stereo not given)")
"> 100 µM (inactive)"
>>> val("Cc1ccc(S(=O)(=O)OCCC2CN(C(=O)OCc3ccccc3)C(C)(C)O2)cc1 (stereo not given)")
"3.69 µM (inactive)"
>>> val("CCC(=O)NI1OC(=O)c2ccccc21")
"> 100 µM (inactive)"
>>> val("CCCCCCc1cc2cc(C(=O)Nc3ccc(F)cc3)c(=N)oc2cc1O")
"3.36 µM (inactive)"
>>> val("CCCCCCCCCCCC(=O)c1c(O)cccc1O")
"16.5 µM (inactive)"
>>> val("O=C1/C(=C/c2ccc(O)c(O)c2)CC/C1=C\\c1ccc(O)c(O)c1")
"2.29 µM (inactive)"
>>> val("O=C(CSc1nc(=O)c(-c2ccccc2NC(=O)C(F)(F)F)n[nH]1)NC(=O)Nc1ccccc1")
"38.1 µM (inactive)"
>>> val("O=c1c2cc(Br)ccc2n(C2OC(CO)C(O)C(O)C2O)c(=S)n1-c1ccccc1 (stereo not given)")
"> 100 µM (inactive)"
>>> val("CC(N/N=C(\\S)N1CCCCCC1)c1cccnn1 (stereo not given)")
"0.526 µM (active)"
>>> val("COc1cccc2c1C(=O)C(=O)c1c-2oc(=O)c2cc(C)cc(OC)c12")
"35 µM (inactive)"
>>> val("CC(O)C(NC(=O)C(CS)NC(=O)C(CO)NC(=O)C(CCCCN)NC(=O)C(Cc1c[nH]c2ccccc12)NC(=O)C(Cc1ccc(O)cc1)NC(=O)C(CS)NC(=O)C(N)Cc1ccccc1)C(N)=O (stereo not given)")
"> 25 µM (inactive)"
>>> val("Cc1ccc(C2(N3CCOCC3)OC(C)(C)c3cccc4cccc2c34)cc1 (stereo not given)")
"16.9 µM (inactive)"
>>> val("CCOC(=O)C(Cc1ccccc1)(Cc1ccc(O)cn1)NC(=O)c1ccccc1 (stereo not given)")
"29.6 µM (inactive)"
>>> val("CCCCC1c2c([nH]c3ccccc23)C2C(=O)N(c3ccc(OC)cc3)C(=O)C2C1CCC (stereo not given)")
"4.45 µM (inactive)"
>>> val("O=c1[nH]nc(-c2ccc3ccccc3c2)[nH]1")
"43.3 µM (inactive)"

* * *

Tested on: Malme-3M
assay details: NCI tumour cell line growth inhibition, 48 h
The source made the active and inactive calls. Cut-off read from the data, not from the text of the source: active = GI50 up to about 1.1 µM and inactive = higher.
Outcomes: active, inactive

>>> label_class("Cc1ccc(Nc2nc(=O)[nH]c(=O)[nH]2)cc1N")
"inactive"
>>> label_class("CNCCCNc1c2ccccc2nc2cccc([N+](=O)[O-])c12")
"active"
>>> label_class("COCC1OC(Sc2ccccc2)C(O)C(OC)C1OC (configuration not stated)")
"inactive"
>>> label_class("CN(C)c1ccc(/C=C/C(=O)c2cc(C(C)(C)C)c(O)c(C(C)(C)C)c2)cc1")
"inactive"
>>> label_class("COc1cc(/C=N\\c2ccc(C(C)C)cc2)cc(OC)c1OC")
"inactive"
>>> label_class("CC(=O)OC[C@H]1O[C@@H](O[C@H]2[C@H](OC(C)=O)C=CO[C@@H]2COC(C)=O)C(OC(C)=O)[C@H]2OC(C)(C)O[C@H]21 (some centres not stated)")
"inactive"
>>> label_class("CCOC(=O)C1=C(Nc2cccc3ccccc23)OCC1=O")
"inactive"
>>> label_class("NNC(=O)c1cc([N+](=O)[O-])ccc1NC(=O)C12CC3CC(CC(C3)C1)C2")
"inactive"
>>> label_class("CNC(=O)CN(CC(=O)NC)C(=O)NC")
"inactive"
>>> label_class("COc1ccc(/N=C2/C(=N/c3ccc(OC)cc3)N(c3ccccc3)C(=S)N2N=C=C2Sc3ccccc3N2C)cc1")
"inactive"
>>> label_class("N#Cc1c(-c2ccc([N+](=O)[O-])cc2)cc(-c2ccc(Nc3ccnc4cc(C(F)(F)F)ccc34)cc2)nc1N")
"inactive"
>>> label_class("COC(=O)C1=C(C(=O)OC)SC(=CC#CC=C2SC(C(=O)OC)=C(C(=O)OC)S2)S1")
"inactive"
